target: N-type calcium channel (α1B + α2 + β1b) (Rattus norvegicus, UniProt Q02294); construct: expressed in transfected cells; host or cells: HEK293 cells stably expressing, or HEK TSA 201 cells transiently transfected with, α1B + α2 + β1b; experiment: Open-channel block of N-type calcium channels, whole cell patch clamp, holding potential -100 mV; assay type: cell-based; details: read-out: Open/Resting Block (determined at 10 μM)
Sequence (Q02294 whole entry): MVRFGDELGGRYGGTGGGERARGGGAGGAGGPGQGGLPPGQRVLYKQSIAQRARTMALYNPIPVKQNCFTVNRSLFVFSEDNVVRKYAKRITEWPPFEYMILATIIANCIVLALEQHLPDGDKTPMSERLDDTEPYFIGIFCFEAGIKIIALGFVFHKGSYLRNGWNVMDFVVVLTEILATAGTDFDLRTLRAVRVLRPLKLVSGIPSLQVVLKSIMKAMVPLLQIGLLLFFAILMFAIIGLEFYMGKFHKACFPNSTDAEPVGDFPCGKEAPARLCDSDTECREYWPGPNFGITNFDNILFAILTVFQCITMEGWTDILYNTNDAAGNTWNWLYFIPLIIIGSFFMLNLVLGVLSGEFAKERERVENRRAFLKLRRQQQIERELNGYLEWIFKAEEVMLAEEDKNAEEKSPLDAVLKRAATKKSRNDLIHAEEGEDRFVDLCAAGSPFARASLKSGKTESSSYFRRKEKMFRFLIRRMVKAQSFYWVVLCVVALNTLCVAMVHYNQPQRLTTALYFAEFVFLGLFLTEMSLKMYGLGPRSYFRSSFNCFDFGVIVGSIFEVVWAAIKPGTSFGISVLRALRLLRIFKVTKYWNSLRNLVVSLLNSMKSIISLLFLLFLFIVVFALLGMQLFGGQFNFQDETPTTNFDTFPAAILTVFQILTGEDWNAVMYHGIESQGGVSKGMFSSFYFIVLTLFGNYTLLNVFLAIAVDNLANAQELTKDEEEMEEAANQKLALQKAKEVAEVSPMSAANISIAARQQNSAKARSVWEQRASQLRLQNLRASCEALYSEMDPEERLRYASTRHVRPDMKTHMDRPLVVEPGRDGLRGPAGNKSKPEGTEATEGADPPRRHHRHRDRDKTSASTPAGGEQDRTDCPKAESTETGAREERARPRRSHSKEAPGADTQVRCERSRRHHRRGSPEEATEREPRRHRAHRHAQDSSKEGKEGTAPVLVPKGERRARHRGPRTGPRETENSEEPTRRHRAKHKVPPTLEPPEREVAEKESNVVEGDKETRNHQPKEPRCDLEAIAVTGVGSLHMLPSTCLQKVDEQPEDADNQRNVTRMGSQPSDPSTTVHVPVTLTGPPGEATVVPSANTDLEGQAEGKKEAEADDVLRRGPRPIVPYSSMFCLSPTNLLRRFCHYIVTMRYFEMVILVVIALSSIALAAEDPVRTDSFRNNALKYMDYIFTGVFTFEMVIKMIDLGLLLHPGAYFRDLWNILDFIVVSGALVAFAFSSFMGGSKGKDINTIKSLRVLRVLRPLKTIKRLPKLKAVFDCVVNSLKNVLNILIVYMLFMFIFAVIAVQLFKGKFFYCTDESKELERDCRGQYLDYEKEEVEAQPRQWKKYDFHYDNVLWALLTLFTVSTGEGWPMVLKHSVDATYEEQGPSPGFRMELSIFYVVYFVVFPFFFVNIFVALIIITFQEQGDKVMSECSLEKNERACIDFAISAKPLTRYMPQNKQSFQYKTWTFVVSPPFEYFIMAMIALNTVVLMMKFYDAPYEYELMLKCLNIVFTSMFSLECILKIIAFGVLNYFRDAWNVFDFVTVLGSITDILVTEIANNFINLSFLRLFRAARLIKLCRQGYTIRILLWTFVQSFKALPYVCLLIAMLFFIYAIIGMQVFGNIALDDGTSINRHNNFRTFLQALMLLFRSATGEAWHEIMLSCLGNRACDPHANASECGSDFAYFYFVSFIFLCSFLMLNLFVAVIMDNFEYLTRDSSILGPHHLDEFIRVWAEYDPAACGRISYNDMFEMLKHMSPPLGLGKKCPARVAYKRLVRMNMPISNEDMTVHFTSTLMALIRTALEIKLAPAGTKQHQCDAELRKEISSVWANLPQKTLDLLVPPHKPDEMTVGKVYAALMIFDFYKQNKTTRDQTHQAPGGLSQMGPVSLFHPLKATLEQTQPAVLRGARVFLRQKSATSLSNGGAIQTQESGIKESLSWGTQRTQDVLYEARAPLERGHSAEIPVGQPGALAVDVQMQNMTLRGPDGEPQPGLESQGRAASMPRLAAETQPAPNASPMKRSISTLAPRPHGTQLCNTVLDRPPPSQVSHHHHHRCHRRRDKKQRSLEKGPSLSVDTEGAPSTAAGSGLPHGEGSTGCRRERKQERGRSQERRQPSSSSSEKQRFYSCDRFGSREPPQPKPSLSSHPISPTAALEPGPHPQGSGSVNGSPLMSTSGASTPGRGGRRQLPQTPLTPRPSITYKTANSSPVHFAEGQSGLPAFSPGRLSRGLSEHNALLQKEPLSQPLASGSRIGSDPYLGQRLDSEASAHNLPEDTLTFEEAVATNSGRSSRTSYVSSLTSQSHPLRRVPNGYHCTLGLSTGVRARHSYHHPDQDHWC
Sequence (P54290 25-944 partner limits assumed): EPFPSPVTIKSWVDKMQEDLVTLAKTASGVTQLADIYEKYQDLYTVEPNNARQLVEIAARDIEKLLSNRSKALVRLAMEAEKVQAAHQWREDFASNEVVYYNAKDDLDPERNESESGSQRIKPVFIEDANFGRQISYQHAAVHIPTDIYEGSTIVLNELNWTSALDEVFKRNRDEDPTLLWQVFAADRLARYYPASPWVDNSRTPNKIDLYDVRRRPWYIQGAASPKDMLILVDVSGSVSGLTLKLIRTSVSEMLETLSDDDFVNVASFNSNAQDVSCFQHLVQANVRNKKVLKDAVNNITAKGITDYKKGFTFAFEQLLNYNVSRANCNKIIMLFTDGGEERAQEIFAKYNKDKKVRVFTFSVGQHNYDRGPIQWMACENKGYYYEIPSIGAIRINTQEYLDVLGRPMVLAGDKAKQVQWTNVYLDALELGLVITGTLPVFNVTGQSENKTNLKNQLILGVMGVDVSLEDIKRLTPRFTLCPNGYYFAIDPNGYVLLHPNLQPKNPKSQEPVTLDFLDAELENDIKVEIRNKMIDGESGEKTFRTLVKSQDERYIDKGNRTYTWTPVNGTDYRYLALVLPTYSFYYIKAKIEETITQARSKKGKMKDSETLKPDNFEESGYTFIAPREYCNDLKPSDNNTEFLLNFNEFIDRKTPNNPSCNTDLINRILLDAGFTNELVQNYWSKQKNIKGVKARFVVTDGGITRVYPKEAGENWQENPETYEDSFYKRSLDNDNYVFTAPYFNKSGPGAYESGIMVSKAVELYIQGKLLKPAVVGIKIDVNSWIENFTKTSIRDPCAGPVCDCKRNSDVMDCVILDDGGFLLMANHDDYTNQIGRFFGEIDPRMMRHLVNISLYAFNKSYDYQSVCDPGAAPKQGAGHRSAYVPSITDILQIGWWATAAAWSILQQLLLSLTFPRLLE
Sequence (P54290 945-1091 partner limits assumed): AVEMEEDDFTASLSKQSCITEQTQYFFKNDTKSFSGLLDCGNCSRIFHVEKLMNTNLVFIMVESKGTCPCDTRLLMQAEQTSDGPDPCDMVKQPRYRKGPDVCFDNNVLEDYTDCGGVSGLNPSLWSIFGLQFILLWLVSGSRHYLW
Sequence (P54283 whole entry partner): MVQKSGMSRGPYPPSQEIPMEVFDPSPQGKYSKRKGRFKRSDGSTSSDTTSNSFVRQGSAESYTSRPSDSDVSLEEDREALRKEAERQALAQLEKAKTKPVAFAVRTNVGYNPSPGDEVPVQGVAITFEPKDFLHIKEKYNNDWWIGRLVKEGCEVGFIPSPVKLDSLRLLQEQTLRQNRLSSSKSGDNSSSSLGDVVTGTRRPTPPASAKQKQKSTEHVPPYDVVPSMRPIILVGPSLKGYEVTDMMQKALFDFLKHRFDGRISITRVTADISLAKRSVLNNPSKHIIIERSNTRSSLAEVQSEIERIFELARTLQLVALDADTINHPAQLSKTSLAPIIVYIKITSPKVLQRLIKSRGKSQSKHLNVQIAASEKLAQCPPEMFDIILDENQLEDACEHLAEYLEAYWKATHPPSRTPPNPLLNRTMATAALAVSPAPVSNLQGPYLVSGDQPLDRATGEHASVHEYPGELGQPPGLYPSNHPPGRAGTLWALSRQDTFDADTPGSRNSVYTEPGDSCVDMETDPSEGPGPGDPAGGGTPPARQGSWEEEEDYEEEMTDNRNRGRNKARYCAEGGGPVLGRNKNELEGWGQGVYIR

{"columns": ["compound", "inhibition at 10 µM"],
 "data": [
  ["CC(=O)OCC=C(C)CCC=C(C)CCC=C(C)C [farnesyl acetate]", "90 to 100%"],
  ["CCCCCCCCCCCC", "10 to 20%"],
  ["CCCCCCCCCCCCN", "90 to 100%"],
  ["CCCCCCCCCCN", "> 80%"],
  ["CC(C)=CCCC(C)=CCCC(C)=CCBr [farnesyl bromide]", "20 to 30%"],
  ["CC(C)=CCCC(C)=CCCC(C)=CCO", "60%"]
]}
